Values compiled from ChEMBL document CHEMBL5143717.

Below, each entry is listed alongside its reported AUC(0-t).
assay: AUClast in rat at 2 mg/kg, po; assay type: ADME, organism-based; design: time 0 - last, dose 2 mg/kg, route po; conditions: in vivo
Report the value in µM·h with no unit label.

[
  {
    "structure": "COc1cc(OCc2cc(C(F)(F)F)ccc2C)c2cc(-c3cn4nc(OC)sc4n3)oc2c1",
    "AUC(0-t) / µM·h": 1.9
  }
]

Recorded AUC(0-t) of COc1cc(OCc2csc(-c3ccc(C(C)(C)O)cc3)n2)c2cc(-c3cn4nc(OC)sc4n3)oc2c1 , please.
0.92

Recorded AUC(0-t) of COc1cc(OCc2cccc(OCc3ccccc3)c2)c2cc(-c3cn4nc(OC)sc4n3)oc2c1 , please.
0.66

Recorded AUC(0-t) of COc1cc(OCc2cccc(N3CCOCC3)n2)c2cc(-c3cn4nc(OC)sc4n3)oc2c1 , please.
7.3

====

test: AUClast in rat at 2 mg/kg, po; assay type: ADME, organism-based; set-up: time 0 - last, dose 2 mg/kg, route po; details: in vivo
endpoint.name: AUC(0-t)
Answer with the figure and its unit, nothing else.

Consider the following illustrative entries.
[
  {
    "structure": "COc1cc(OCc2nc(N3CCOCC3)sc2C(F)(F)F)c2cc(-c3cn4nc(OC)sc4n3)oc2c1",
    "reported.value": "2.4 µM·h"
  },
  {
    "structure": "COc1cc(OCc2cccc(-c3ccc(OC)nc3)c2)c2cc(-c3cn4nc(OC)sc4n3)oc2c1",
    "reported.value": "3.5 µM·h"
  },
  {
    "structure": "COc1cc(OCc2cccc(-c3ccoc3)c2)c2cc(-c3cn4nc(OC)sc4n3)oc2c1",
    "reported.value": "10.9 µM·h"
  },
  {
    "structure": "COc1ccc(-c2cccc(COc3cc(OC)cc4oc(-c5cn6nc(OC)sc6n5)cc34)c2)nc1",
    "reported.value": "3.3 µM·h"
  }
]

Moving on to the next compound.
Recorded AUC(0-t) of COc1cc(OCc2csc(C3CCC(F)(F)CC3)n2)c2cc(-c3cn4nc(OC)sc4n3)oc2c1 , please.
0.8 µM·h

====

experiment: AUClast in rat at 2 mg/kg, po; format: ADME, organism-based; design: time 0 - last, dose 2 mg/kg, route po; conditions: in vivo
Below, each entry is listed alongside its reported AUC(0-t).

Recorded AUC(0-t) of COc1cc(OCc2cccc(-c3ccc(C(F)(F)F)cn3)c2)c2cc(-c3cn4nc(OC)sc4n3)oc2c1 , please.
830 nM·h

Recorded AUC(0-t) of COc1cc(OCc2csc(N3CC4CCC(C3)O4)n2)c2cc(-c3cn4nc(OC)sc4n3)oc2c1 , please.
1900 nM·h

Recorded AUC(0-t) of COc1cc(OCc2csc(N3CCN(C)CC3)n2)c2cc(-c3cn4nc(OC)sc4n3)oc2c1 , please.
1800 nM·h

Recorded AUC(0-t) of COc1cc(OCc2cccc(-c3cnc(OC)nc3)c2)c2cc(-c3cn4nc(OC)sc4n3)oc2c1 , please.
2000 nM·h

Recorded AUC(0-t) of COc1cc(OCc2ccnc(N3CCOCC3)n2)c2cc(-c3cn4nc(OC)sc4n3)oc2c1 , please.
7500 nM·h

Recorded AUC(0-t) of COc1cc(OCc2coc(N3CCOCC3)n2)c2cc(-c3cn4nc(OC)sc4n3)oc2c1 , please.
13100 nM·h

Recorded AUC(0-t) of COc1cc(OCc2ccnc(-c3ccccc3)n2)c2cc(-c3cn4nc(OC)sc4n3)oc2c1 , please.
7400 nM·h

Recorded AUC(0-t) of COc1cc(OCc2csc(C3CCOCC3)n2)c2cc(-c3cn4nc(OC)sc4n3)oc2c1 , please.
3700 nM·h

Recorded AUC(0-t) of COc1cc(OCc2csc(-c3ccc(C(F)(F)F)cc3)n2)c2cc(-c3cn4nc(OC)sc4n3)oc2c1 , please.
1300 nM·h

Recorded AUC(0-t) of COc1cc(OCc2csc(-c3ccc(C(=O)N4CCCC4)cc3)n2)c2cc(-c3cn4nc(OC)sc4n3)oc2c1 , please.
3000 nM·h

Recorded AUC(0-t) of COc1cc(OCc2cccc(-c3ccc(C#N)cc3)c2)c2cc(-c3cn4nc(OC)sc4n3)oc2c1 , please.
1200 nM·h

Recorded AUC(0-t) of COc1cc(OCc2ccccc2)c2cc(-c3cn4nc(OC)sc4n3)oc2c1 , please.
5500 nM·h

Recorded AUC(0-t) of COc1cc(OCc2csc(N3CCCOCC3)n2)c2cc(-c3cn4nc(OC)sc4n3)oc2c1 , please.
5000 nM·h

Recorded AUC(0-t) of COc1cc(OCc2csc(-c3ccc(C(=O)N4CCC(F)(F)C4)cc3)n2)c2cc(-c3cn4nc(OC)sc4n3)oc2c1 , please.
580 nM·h

Recorded AUC(0-t) of COc1cc(OCc2csc(-c3ccc(S(C)(=O)=O)cc3)n2)c2cc(-c3cn4nc(OC)sc4n3)oc2c1 , please.
260 nM·h

Recorded AUC(0-t) of COc1cc(OCc2csc(-c3ccccc3)n2)c2cc(-c3cn4nc(OC)sc4n3)oc2c1 , please.
8000 nM·h

====

assay: Drug concentration in rat at 2 mg/kg, po measured after 24 hrs; format: ADME, organism-based; details: in vivo, read-out: Drug uptake
Kindly return class 1 if reported concentration at 24 h is no lower than 30 nM; return class 0 if it is lower.

[
  {
    "compound": "COc1cc(OCc2csc(-c3ccc(C(C)(C)O)cc3)n2)c2cc(-c3cn4nc(OC)sc4n3)oc2c1",
    "discrete.label": "class 0"
  },
  {
    "compound": "COc1cc(OCc2csc(N3CCOCC3)n2)c2cc(-c3cn4nc(OC)sc4n3)oc2c1",
    "discrete.label": "class 1"
  },
  {
    "compound": "COc1cc(OCc2cccc(-c3ccc(C#N)cc3)c2)c2cc(-c3cn4nc(OC)sc4n3)oc2c1",
    "discrete.label": "class 0"
  },
  {
    "compound": "COc1cc(OCc2csc(-c3ccc(C(F)(F)F)cc3)n2)c2cc(-c3cn4nc(OC)sc4n3)oc2c1",
    "discrete.label": "class 0"
  },
  {
    "compound": "COc1cc(OCc2nc(N3CCOCC3)sc2C)c2cc(-c3cn4nc(OC)sc4n3)oc2c1",
    "discrete.label": "class 1"
  },
  {
    "compound": "COc1cc(OCc2csc(-c3ccc(C(=O)N(C)C)cc3)n2)c2cc(-c3cn4nc(OC)sc4n3)oc2c1 [BMS-986141]",
    "discrete.label": "class 0"
  },
  {
    "compound": "COc1cc(OCc2ccnc(N3CCOCC3)n2)c2cc(-c3cn4nc(OC)sc4n3)oc2c1",
    "discrete.label": "class 1"
  },
  {
    "compound": "COc1cc(OCc2csc(N3CC4CCC(C3)O4)n2)c2cc(-c3cn4nc(OC)sc4n3)oc2c1",
    "discrete.label": "class 0"
  }
]

Identify whether the reported concentration at 24 h of the following compound is 30 nM or greater: COc1cc(OCc2csc(C3CCOCC3)n2)c2cc(-c3cn4nc(OC)sc4n3)oc2c1
class 0

Identify whether the reported concentration at 24 h of the following compound is 30 nM or greater: COc1cc(OCc2cccc(N3CCOCC3)n2)c2cc(-c3cn4nc(OC)sc4n3)oc2c1
class 1

Identify whether the reported concentration at 24 h of the following compound is 30 nM or greater: COc1cc(OCc2cccc(-c3ccc(C#N)cn3)c2)c2cc(-c3cn4nc(OC)sc4n3)oc2c1
class 0

Identify whether the reported concentration at 24 h of the following compound is 30 nM or greater: COc1cc(OCc2cccc(-c3cnc(OC)nc3)c2)c2cc(-c3cn4nc(OC)sc4n3)oc2c1
class 0

Identify whether the reported concentration at 24 h of the following compound is 30 nM or greater: COc1cc(OCc2cccc(-c3ccoc3)c2)c2cc(-c3cn4nc(OC)sc4n3)oc2c1
class 1

Identify whether the reported concentration at 24 h of the following compound is 30 nM or greater: COc1cc(OCc2cc(C(F)(F)F)ccc2C)c2cc(-c3cn4nc(OC)sc4n3)oc2c1
class 0

Identify whether the reported concentration at 24 h of the following compound is 30 nM or greater: COc1cc(OCc2csc(N3CCN(C)CC3)n2)c2cc(-c3cn4nc(OC)sc4n3)oc2c1
class 0

Identify whether the reported concentration at 24 h of the following compound is 30 nM or greater: COc1cc(OCc2cccc(-c3cnc(OC)cn3)c2)c2cc(-c3cn4nc(OC)sc4n3)oc2c1
class 0

Identify whether the reported concentration at 24 h of the following compound is 30 nM or greater: COc1cc(OCc2csc(-c3ccc(S(C)(=O)=O)cc3)n2)c2cc(-c3cn4nc(OC)sc4n3)oc2c1
class 0

Identify whether the reported concentration at 24 h of the following compound is 30 nM or greater: COc1cc(OCc2nc(N3CCOCC3)sc2C(F)(F)F)c2cc(-c3cn4nc(OC)sc4n3)oc2c1
class 0
